assay: Metabolic stability in human liver microsomes assessed as compound remaining incubated for 30 mins; assay type: ADME, Microsome; conditions: read-out: Stability
Endpoint Label: remaining at 0.5 h

### Prompt // returns reported remaining at 0.5 h for input `CC(C)(C)Nc1ncc(-c2cnn(C(C)(C)CC(=O)O)c2)cc1-c1nc2ccccc2o1`
### Response > 99.9%

---

assay: Tmax in male mouse at 5 mg/kg, po; format: ADME, organism-based; settings: in vivo
Endpoint Label: Tmax (h)
The figure you give is taken to be in h; do not add the unit.

### Prompt // returns reported Tmax for input `CC(C)(C)Nc1ncc(-c2cnn(C(C)(C)CC(=O)O)c2)cc1-c1nc2ccccc2o1`
### Response 3.67
